Molecular target: T1, human IGF2^1-67 (mature insulin-like growth factor 2) (human, UniProt P01344 25-91, biotinylated (site not stated) where immobilised on the chip (Tables 1-4))
T1 construct: mature; also called mature IGF2; biotinylated IGF2
T1 sequence (P01344 25-91): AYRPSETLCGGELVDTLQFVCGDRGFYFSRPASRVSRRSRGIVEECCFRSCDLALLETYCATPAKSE
Assay: SPR kinetic, biotin-IGF2 on chip, pH 7.4
Kd listing for selected binders.
Lab book: enter the figure in nM, no units written.

binder	unitDescriptor	Kd
domain 11^AB3 P1597K S1602H (receptor, See m5) MKSNEHDDCQVTNPSTGHLFDLSSLSGRAGFTAAYSKSGVVYMSICGENENCPPGVGACFGQTRISVGKANKRLRYVDQVLQLVYKDGSKCPSKHGLSYKSVISFVCRPEAGPTNRPMLISLDKQTCTLFFSWHTPLACEQATECSV	nM	3.73

Here is the next item to consider.
-- ask Name the recorded Kd for domain 11^AB3 Q1569R (receptor, See m5; also called AB3 + 73E (CD-Q1569R)) MKSNEHDDCQVTNPSTGHLFDLSSLSGRAGFTAAYSKSGVVYMSICGENENCPPGVGACFGRTRISVGKANKRLRYVDQVLQLVYKDGSPCPSKSGLSYKSVISFVCRPEAGPTNRPMLISLDKQTCTLFFSWHTPLACEQATECSV .
-- reply 2.3

Origin of the recorded values: patent US20180237497A1
